Molecular target: AHR (Homo sapiens, UniProt P35869)
Test: In vitro assay 1: antagonism in human cell line (transactivation assay, kynurenic acid prestimulated)
Conditions: Assay 1: AHR-luc Hum Antagonism IC50 [M], 150 μM kynurenic acid, 20 hours, firefly luciferase
Readout label: IC50 (M)

Example cases with answers are listed next.
INSERT INTO assay_data (molecule, experimental_value) VALUES
  ('Cc1ccc(-c2cc(C(=O)NC(CO)C(C)C)c(=O)n(-c3cccc(F)c3)n2)cc1 (stereo not shown)', '2.98e-08'),
  ('O=C(NC(CO)C1CCOC1)c1cc(-c2ccc(Cl)c(F)c2)nn(-c2cccc(F)c2)c1=O (stereo not shown) [Example 287]', '1.29e-07');

(A) CC(NC(=O)c1cc(-c2ccc(Cl)cc2)nn(-c2cccc(F)c2)c1=O)C(O)CO (single isomer, unassigned) [Example 347]
(B) C[C@H](CO)NC(=O)c1cc(-c2ccc(Cl)cc2)nn(-c2cccc(F)c2)c1=O
(C) O=C(NCC(O)C(F)(F)F)c1cc(-c2ccc(OC(F)(F)F)cc2)nn(-c2cccc(F)c2)c1=O (single isomer, unassigned) [Example 183]
(D) COC(=O)[C@@H](CO)NC(=O)c1cc(-c2ccc(Cl)cc2)nn(-c2cccc(F)c2)c1=O
(E) O=C(NC(CO)C1CCCO1)c1cc(-c2ccc(C(F)(F)F)cc2)nn(-c2cccc(F)c2)c1=O (single isomer, unassigned) [Example 353]
Order field: IC50 | Direction: descending (largest first) # list labels per requested ordering B, A, D, C, E
(B: 3.02e-07 M, A: 1.69e-07 M, D: 8.53e-08 M, C: 3.78e-08 M, E: 2e-08 M)

----------
Target: AHR (Homo sapiens, UniProt P35869)
Sequence (P35869 11-848): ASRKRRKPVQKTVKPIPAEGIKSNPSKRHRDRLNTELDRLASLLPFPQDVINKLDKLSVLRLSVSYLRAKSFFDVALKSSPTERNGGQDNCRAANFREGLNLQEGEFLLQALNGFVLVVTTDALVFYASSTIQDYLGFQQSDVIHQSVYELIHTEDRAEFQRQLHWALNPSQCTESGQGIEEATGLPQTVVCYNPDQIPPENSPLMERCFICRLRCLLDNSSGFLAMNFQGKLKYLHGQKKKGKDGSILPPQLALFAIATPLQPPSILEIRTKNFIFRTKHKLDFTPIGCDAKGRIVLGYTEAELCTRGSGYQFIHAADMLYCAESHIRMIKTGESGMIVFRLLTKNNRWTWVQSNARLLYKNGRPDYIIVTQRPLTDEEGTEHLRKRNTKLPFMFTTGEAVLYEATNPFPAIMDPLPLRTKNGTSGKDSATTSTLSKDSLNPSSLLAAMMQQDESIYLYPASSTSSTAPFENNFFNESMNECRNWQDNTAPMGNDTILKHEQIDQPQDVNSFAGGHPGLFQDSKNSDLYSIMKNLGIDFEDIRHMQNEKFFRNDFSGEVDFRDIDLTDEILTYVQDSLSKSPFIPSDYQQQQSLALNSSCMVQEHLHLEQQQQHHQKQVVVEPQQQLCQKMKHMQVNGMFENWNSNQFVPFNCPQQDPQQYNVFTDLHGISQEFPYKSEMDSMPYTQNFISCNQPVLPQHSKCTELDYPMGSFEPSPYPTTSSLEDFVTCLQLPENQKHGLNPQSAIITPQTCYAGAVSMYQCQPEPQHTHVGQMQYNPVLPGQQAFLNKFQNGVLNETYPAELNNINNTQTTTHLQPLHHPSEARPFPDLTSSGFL
Assay: In vitro assay 1: antagonism in human cell line (transactivation assay, kynurenic acid prestimulated)
Conditions: Assay 1: AHR-luc Hum Antagonism IC50 [M], 150 μM kynurenic acid, 20 hours, firefly luciferase
Readout label: IC50 (M)

In the examples that follow, each entry is paired with its recorded IC50.
INSERT INTO results (molecule, readout_label, experimental_value) VALUES
  ('COCC(O)CNC(=O)c1cc(-c2ccc(C)cc2)nn(-c2cccc(F)c2)c1=O (single isomer, unassigned; enantiomer 2) [Example 18]', 'IC50', '3.39e-07'),
  ('Cc1ccc(-c2cc(C(=O)NCC(C)O)c(=O)n(-c3cccc(F)c3)n2)cc1 (single isomer, unassigned; enantiomer 2) [Example 15]', 'IC50', '2.62e-07'),
  ('O=C(NC(CO)C(F)(F)F)c1cc(-c2ccc(Cl)cc2)nn(-c2cccc(F)c2)c1=O (single isomer, unassigned; (+)) [Example 99]', 'IC50', '1.04e-08'),
  ('Cc1ccc(-c2cc(C(=O)N[C@H](CO)C(C)C)c(=O)n(-c3cccc(F)c3)n2)cc1', 'IC50', '1.03e-08');

(1) CC(CO)NC(=O)c1cc(-c2ccc(Cl)cc2)nn(-c2cccc(F)c2)c1=O (centres unmarked)
(2) NC(=O)[C@H](CO)NC(=O)c1cc(-c2ccc(Cl)cc2)nn(-c2cccc(F)c2)c1=O
From the items above, decide which of 1 and 2 has the lower IC50 reading. Return value: the label identifying the chosen record. 1
